- Tested on: FAB9
- protocol summary: qHTS profiling for inhibitors of Plasmodium falciparum proliferation (AID 504749); further: nearly all actives have a fitted effect of over 60% in size
- applied conditions: P. falciparum in erythrocytes, SYBR Green DNA, 72 h; series mostly up to 28.7 µM
Results filed as inconclusive are left out. Active and inactive are the calls of the source. The call rests on the fitted dose curve; in most records, active means well fitted inhibition curve with a large enough effect; inconclusive means small, poorly fitted or top-dose-only effect; inactive means flat fitted curve, though single readings scatter.
Choose the fitting class; nothing outside active, inactive is accepted.

What classification did Oc1cc[c]([Hg][Cl])cc1 end up with in this test?
active

Then what about the molecule C[N+](C)(C)CC(=O)[O-] ?
inactive

Then what about the molecule O=C(O)c1ccccc1-c1c2cc(Br)c(=O)cc-2oc2[c]([Hg])c(O)c(Br)cc12 ?
inactive

Then what about the molecule CCN(CC)CCO[C@H]1CC[C@@]2(C)C(=CC[C@@H]3[C@H]2CC[C@]2(C)C(=O)CC[C@H]32)C1 ?
inactive

----------
- experimental system: Cytochrome P450 2C9 (Homo sapiens)
- protocol summary: Cytochrome P450 family 2 subfamily C member 9 (CYP2C9) small molecule antagonists: luciferase biochemical (cell-free) qHTS assay (AID 1645842); further: nearly all actives have a fitted effect of over 55% in size
- applied conditions: P450-Glo CYP2C9 enzyme assay, luciferin luminescence; series mostly up to 57.4 µM
Results filed as inconclusive are left out. Activity calls are given as the source filed them. Calls follow the shape of the dose curve; as a rule, active = well fitted inhibition curve with a large enough effect in the repeat runs; inconclusive = weak or mixed curves; inactive = no such curve, though single readings can be large or run the other way.
Choose the fitting class; nothing outside active, inactive is accepted.

What classification did COc1cccc(NCC(F)Cn2c3ccc(Br)cc3c3cc(Br)ccc32)c1 (stereo not given) end up with in this test?
active

Then what about the molecule CN1CCC2=C(C1)c1ccccc1Cc1ccccc12 ?
inactive

Then what about the molecule CN=C(NS(=O)(=O)c1ccc(Cl)cc1)N1C[C@H](c2ccccc2)C(c2ccc(Cl)cc2)=N1 ?
inactive

Then what about the molecule CN(C(=O)CN1C(=O)COc2cc(Cl)c(Cl)cc21)[C@@H](CN1CCCC1)c1ccc(-c2cccc(C(N)=O)c2)cc1 ?
active

Then what about the molecule O=C(CC1NCCC[C@H]1O)Cn1cnc2cc(Br)c(Cl)cc2c1=O (stereo not given in full) ?
inactive

----------
- experimental system: Thyroid hormone receptor beta (Homo sapiens) (UniProt P10828)
- Sequence (P10828 whole entry, looked up): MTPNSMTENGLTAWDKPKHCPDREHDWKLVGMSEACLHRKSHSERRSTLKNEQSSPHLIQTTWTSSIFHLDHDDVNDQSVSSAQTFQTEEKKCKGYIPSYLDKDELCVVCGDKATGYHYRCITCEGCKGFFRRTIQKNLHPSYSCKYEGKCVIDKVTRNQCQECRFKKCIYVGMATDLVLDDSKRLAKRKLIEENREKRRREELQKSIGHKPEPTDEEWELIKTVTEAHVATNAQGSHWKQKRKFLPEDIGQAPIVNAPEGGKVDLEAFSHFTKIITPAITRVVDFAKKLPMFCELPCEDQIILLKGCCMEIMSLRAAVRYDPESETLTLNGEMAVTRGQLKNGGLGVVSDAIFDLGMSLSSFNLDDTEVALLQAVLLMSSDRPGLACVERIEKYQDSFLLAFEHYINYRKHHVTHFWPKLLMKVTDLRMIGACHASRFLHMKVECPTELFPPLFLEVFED
- protocol summary: qHTS assay for small molecule agonists of thyroid hormone receptor beta signaling (AID 588545)
- applied conditions: TR-UAS-bla GripTite HEK 293, beta-lactamase ratio, agonist mode, 18 h; series mostly up to 76.7 µM
Inconclusive results are not listed. Calls of active or inactive are those of the source. The call rests on the fitted dose curve.
Choose the fitting class; nothing outside true (active), false (inactive) is accepted.

What classification did Cc1ccc(C)c2ccccc12 end up with in this test?
false

Then what about the molecule Oc1c(Cl)c(Cl)c(Cl)c(Cl)c1Cl ?
false

Then what about the molecule OCCN(CCO)CCO ?
false

Then what about the molecule C[C@H]1O[C@H](OC2[C@@H](O)[C@@H](O)C(O)[C@H](O)[C@H]2O)[C@@H](N)C[C@@H]1N=C(N)C(=O)O (stereo partly specified) ?
false

Then what about the molecule CC(C)(c1ccc(OCC2CO2)cc1)c1ccc(OCC2CO2)cc1 (stereo unspecified) ?
false

Then what about the molecule COC1=CC(=O)OC(CCc2ccc3c(c2)OCO3)C1 (stereo unspecified) ?
false

Then what about the molecule C[C@H](CCC(=O)O)[C@H]1CC[C@H]2[C@@H]3CC[C@@H]4C[C@H](O)CC[C@]4(C)[C@H]3CC[C@]12C ?
false

Then what about the molecule CCOP(=S)(OCC)SCSCC ?
false

Then what about the molecule CCOC(=O)c1ccccc1N ?
false

Then what about the molecule c1ccc2c(c1)-c1cccc3cccc-2c13 ?
false

Then what about the molecule C[C@@H]1Cc2c(Cl)cc(C(=O)N[C@@H](Cc3ccccc3)C(=O)O)c(O)c2C(=O)O1 ?
true

Then what about the molecule Oc1ccccc1Cl ?
false

Then what about the molecule CC(C)COC(=O)c1ccccc1C(=O)OCC(C)C ?
false

Then what about the molecule CC(C)OC(=O)Nc1ccccc1 ?
false

Then what about the molecule CCCCOP(=O)(O)OCCCC ?
false

Then what about the molecule CCOc1cc(C=O)ccc1O ?
false
